Measured values drawn from patent US11466028B2 for this set.

- Tested on: MDA-MB-231
- method: CellTiter-Glo cell growth inhibition, MDA-MB-231
- Format: cell-based
- test context: Homo sapiens, MDA-MB-231, 96 h, 4 days, Table 4
experimental readout: IC50 (nM)

compound: Cc1nnc2n1-c1sc(C#Cc3cnn(CCCC#Cc4cccc5c4C(=O)N(C4CCC(=O)NC4=O)C5=O)c3)c(Cc3ccccc3)c1CO[C@H]2C (stereo partly shown)
study target: MDA-MB-231
experimental readout: IC50
observed: 9.3

A. Cc1nnc2n1-c1sc(C#Cc3cnn(CCCC#Cc4cccc5c4CN(C4CCC(=O)NC4=O)C5=O)c3)c(Cc3ccccc3)c1CO[C@H]2C (stereo partly shown)
B. Cc1nnc2n1-c1sc(C#CCOCCOCCOCCNc3cccc4c3C(=O)N(C3CCC(=O)NC3=O)C4=O)c(Cc3ccccc3)c1CO[C@H]2C (stereo partly shown)
**Query** Identify the entry with the larger IC50. Options: A and B Your choice should be expressed through its label.
**Result** B
